target: recombinant DLAR catalytic domain (Drosophila)
Non-standard residues stand in square brackets, D forms with d. No end group written: not given here. pY = N[C@@H](Cc1ccc(OP(=O)(O)O)cc1)C(=O)O
MEASURED_ENDPOINT: Kcat/Km of dephosphorylation of the peptide by DLAR (malachite green phosphatase assay) (sec^-1M^-1)

Before answering, review these 3 worked examples.
| BINDER | OBSERVED |
| --- | --- |
| VIGD[pY]VCRLCK (cysteine pairing not given here) [Nervous Fingers peptide VIGD(pY)VCRLCK] | 196000 |
| TRDI[pY]ETDYYRK [Insulin receptor peptide TRDI(pY)ETDYYRK] | 264000 |
| CDDS[pY]FGNKC (cysteine pairing not given here) [Myospheroid peptide CDDS(pY)FGNKC] | 143000 |

(1) RDDT[pY]TAHAG [Abelson peptide RDDT(pY)TAHAG]
(2) TAEPD[pY]GALYE [Cuticle peptide TAEPD(pY)GALYE]
Query: Lab log: flag the item ( 1 or 2 ) with the smaller Kcat/Km of dephosphorylation of the peptide by DLAR (malachite green phosphatase assay) figure. Reply briefly: the label of your chosen item.
Response: 1
